Assay notes: MTS cytotoxicity assay on SVR cells
Format: cell-based
Assay context: mouse, SVR cells; 4 mM; 48 hours; MTS; read-out: Viability of SVR cells compared to control, Ave (%)
Reported viability at 48 h, 4 mM values for the following compounds.
The figure you give is taken to be in %; do not add the unit.

Please give the measured viability at 48 h, 4 mM for this compound: CC(C)CC(NC[C@@]1(O)OC[C@@H](O)[C@@H](O[C@@H]2O[C@H](CO)[C@H](O)[C@H](O)[C@H]2O)[C@@H]1O)C(=O)O (stereo in doubt)
93.1

Further cases:
Please give the measured viability at 48 h, 4 mM for this compound: `O=C(O)[C@H](CC1CC1)NC[C@@]1(O)OC[C@@H](O)[C@@H](O[C@@H]2O[C@H](CO)[C@H](O)[C@H](O)[C@H]2O)[C@@H]1O`
87.8
